TARGET OR SYSTEM: HER2 S310F (Homo sapiens, UniProt P04626, S310F)
Construct: expressed in transfected cells; host or cells: BaF3 (murine pro-B)
Sequence (P04626 23-1255 S310F): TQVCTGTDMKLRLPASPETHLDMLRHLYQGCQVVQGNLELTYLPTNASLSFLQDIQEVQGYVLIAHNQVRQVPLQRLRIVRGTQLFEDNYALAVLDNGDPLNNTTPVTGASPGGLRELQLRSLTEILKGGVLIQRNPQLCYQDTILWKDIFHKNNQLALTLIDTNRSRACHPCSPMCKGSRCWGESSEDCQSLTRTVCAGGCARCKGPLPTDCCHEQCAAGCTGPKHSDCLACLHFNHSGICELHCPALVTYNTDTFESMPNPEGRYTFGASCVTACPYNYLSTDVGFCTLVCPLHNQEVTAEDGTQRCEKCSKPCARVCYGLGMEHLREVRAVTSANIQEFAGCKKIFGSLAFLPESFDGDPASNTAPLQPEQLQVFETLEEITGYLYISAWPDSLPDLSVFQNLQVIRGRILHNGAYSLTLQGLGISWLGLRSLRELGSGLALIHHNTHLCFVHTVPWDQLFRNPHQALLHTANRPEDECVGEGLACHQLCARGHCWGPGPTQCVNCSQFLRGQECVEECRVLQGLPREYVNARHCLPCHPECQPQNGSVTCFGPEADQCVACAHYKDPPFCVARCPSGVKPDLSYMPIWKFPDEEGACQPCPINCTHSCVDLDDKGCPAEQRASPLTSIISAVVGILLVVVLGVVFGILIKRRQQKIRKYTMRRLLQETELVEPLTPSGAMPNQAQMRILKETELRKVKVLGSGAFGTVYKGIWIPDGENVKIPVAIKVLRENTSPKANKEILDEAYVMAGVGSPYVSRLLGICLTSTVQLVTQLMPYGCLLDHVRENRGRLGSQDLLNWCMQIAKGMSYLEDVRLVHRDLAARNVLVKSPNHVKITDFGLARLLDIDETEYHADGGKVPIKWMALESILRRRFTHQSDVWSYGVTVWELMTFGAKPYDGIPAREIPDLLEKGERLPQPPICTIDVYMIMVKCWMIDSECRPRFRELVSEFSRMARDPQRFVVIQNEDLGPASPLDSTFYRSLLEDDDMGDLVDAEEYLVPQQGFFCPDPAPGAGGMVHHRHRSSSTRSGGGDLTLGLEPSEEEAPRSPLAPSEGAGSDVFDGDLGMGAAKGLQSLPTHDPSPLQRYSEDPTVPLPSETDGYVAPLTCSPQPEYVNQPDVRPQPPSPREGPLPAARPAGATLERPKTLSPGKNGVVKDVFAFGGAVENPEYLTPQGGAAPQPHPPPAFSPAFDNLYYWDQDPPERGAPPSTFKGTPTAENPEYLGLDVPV
MEASUREMENT NOTES: Activity for inhibiting HER2 (Table B), HER2 S310F
Type: cell-based
EXPERIMENTAL CONDITIONS: read-out: HER2 S310F, potency code (IC50)
pIC50: −log10 of the molar value.
TEST READOUT: pIC50

COMPOUND: C=CC(=O)Nc1cc2c(Nc3ccc(OCc4ccccn4)c(Cl)c3)ncnc2cc1OCCN1CC2CCC(C1)O2
TARGET OR SYSTEM: HER2 S310F (Homo sapiens, UniProt P04626, S310F)
TEST READOUT: pIC50
OBSERVED RESULT: 7.52 to 7.70
//
COMPOUND: C=CC(=O)Nc1cc2c(Nc3ccc(OCc4ccccn4)c(Cl)c3)ncnc2cc1C#CC1[C@H]2CNC[C@@H]12 (stereo partly shown)
TARGET OR SYSTEM: HER2 S310F (Homo sapiens, UniProt P04626, S310F)
TEST READOUT: pIC50
OBSERVED RESULT: 7.30 to 7.52
//
COMPOUND: C=CC(=O)Nc1cc2c(Nc3ccc(OCc4ccccn4)cc3)ncnc2cc1OCCn1ccnc1
TARGET OR SYSTEM: HER2 S310F (Homo sapiens, UniProt P04626, S310F)
TEST READOUT: pIC50
OBSERVED RESULT: 6.70 to 7.00

The compound `C=CC(=O)Nc1cc2c(Nc3ccc(Oc4ccccc4)c(Cl)c3)ncnc2cc1O[C@@H]1CCN(C)C1` showed pIC50 equal to 7.30 to 7.52

###

What IC50 was measured for each of the following?
TARGET OR SYSTEM: EGFR V3 (Homo sapiens, UniProt P00533, DELINS30-297G)
Construct: expressed in transfected cells; host or cells: BaF3 (murine pro-B), retroviral pMXs-IRES-Blasticidin
Sequence (P00533 with tags, fused parts or gaps DELINS30-297G): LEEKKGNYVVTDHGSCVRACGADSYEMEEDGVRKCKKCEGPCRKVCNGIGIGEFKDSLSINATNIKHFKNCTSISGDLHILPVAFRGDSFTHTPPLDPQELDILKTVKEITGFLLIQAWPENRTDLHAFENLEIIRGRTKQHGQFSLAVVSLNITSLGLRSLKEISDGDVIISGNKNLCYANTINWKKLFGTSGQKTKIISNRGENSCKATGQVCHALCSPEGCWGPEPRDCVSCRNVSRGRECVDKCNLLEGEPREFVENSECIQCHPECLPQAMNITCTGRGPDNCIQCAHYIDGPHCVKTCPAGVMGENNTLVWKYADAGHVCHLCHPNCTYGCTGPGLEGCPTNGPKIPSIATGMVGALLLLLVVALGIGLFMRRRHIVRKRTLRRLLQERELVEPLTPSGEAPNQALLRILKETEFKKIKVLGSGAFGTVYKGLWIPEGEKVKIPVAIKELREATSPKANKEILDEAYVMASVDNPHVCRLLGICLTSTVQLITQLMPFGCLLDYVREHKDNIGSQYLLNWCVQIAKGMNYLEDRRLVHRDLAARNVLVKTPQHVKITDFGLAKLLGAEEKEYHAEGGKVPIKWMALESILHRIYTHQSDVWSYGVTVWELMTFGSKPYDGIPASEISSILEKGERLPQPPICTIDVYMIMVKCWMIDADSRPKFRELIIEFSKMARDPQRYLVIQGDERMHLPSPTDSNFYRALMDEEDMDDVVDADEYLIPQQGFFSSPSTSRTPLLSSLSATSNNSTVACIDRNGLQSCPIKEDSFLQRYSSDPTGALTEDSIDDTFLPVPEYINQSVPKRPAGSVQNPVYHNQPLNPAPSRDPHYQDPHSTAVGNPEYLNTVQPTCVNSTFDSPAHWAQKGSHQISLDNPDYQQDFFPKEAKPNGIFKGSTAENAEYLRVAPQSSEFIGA
MEASUREMENT NOTES: BaF3 cell proliferation assay, EGFR V3 (Table A)
Assay type: cell-based
EXPERIMENTAL CONDITIONS: potency code, 3 days, CellTiterGlo, read-out: EGFR V3 (Activity for Inhibiting EGFR)

# annotated cases, reported IC50 shown
COMPOUND: C=CC(=O)Nc1cc2c(Nc3ccc(OCc4ccccn4)c(Cl)c3)c(C#N)cnc2cc1OCCN1CCOCC1 [compound 11]
OBSERVED RESULT: 0.05 to 0.1 µM

COMPOUND: C=CC(=O)Nc1cc2c(Nc3ccc(OCc4ccccn4)c(Cl)c3)ncnc2cc1OCC1(N(C)C)CC1 [compound 54]
OBSERVED RESULT: 0.01 to 0.02 µM

Record IC50 per entry; entries follow.
1. C=CC(=O)Nc1cc2c(Nc3ccc(OCc4cccnn4)c(Cl)c3)ncnc2cc1OCCN1CCOCC1 [compound 171]
2. C=CC(=O)Nc1cc2c(Nc3ccc(OCc4ccccn4)c(Cl)c3)ncnc2cc1OCCN1CC2CCC(C1)O2 [compound 36]
3. C=CC(=O)Nc1cc2c(Nc3ccc(OCc4cccc(F)n4)c(Cl)c3)ncnc2cc1OCCCN1C[C@@H]2C[C@H]1CO2 [compound 161]
4. C=CC(=O)Nc1cc2c(Nc3ccc(OCc4ccccn4)c(Cl)c3)ncnc2cc1N1CC2CCN(C)C2C1 (centres unmarked) [compound 49]
5. C=CC(=O)Nc1cc2c(Nc3ccc(OCc4cccc(F)c4)c(Cl)c3)ncnc2cc1O[C@@H]1CCN(C)C1 [compound 141]

1. 0.05 to 0.1 µM
2. 0.03 to 0.05 µM
3. 0.03 to 0.05 µM
4. 0.1 to 0.2 µM
5. 0.1 to 0.2 µM

###

TARGET OR SYSTEM: UniProt P04626
MEASUREMENT NOTES: Activity for inhibiting HER2 (Table B), HER2 WT
Format: cell-based
EXPERIMENTAL CONDITIONS: Table B; read-out: HER2 WT, potency code (IC50)
TEST READOUT: IC50

Some entries whose results are on file:
COMPOUND: C=CC(=O)Nc1cc2c(Nc3ccc(OCc4cccc(F)c4)c(Cl)c3)ncnc2cc1OCCN1CCOCC1
IC50: 0.01 to 0.02 µM
//
COMPOUND: C=CC(=O)Nc1cc2c(Nc3ccc(OCc4ccccn4)c(Cl)c3)ncnc2cc1OC1CC(N(C)C)C1 (stereo not drawn)
IC50: < 0.005 µM
//
COMPOUND: C=CC(=O)Nc1cc2c(Nc3ccc(OCc4ccccn4)c(Cl)c3)ncnc2cc1N(C)CCCN1CCOCC1
IC50: 0.05 to 0.1 µM
//
COMPOUND: C=CC(=O)Nc1cc2c(Nc3ccc(OCc4ccccn4)c(Cl)c3)ncnc2cc1OCCN1CCCC1
IC50: 0.005 to 0.01 µM
//
COMPOUND: C=CC(=O)Nc1cc2c(Nc3ccc(OCc4ccccn4)c(Cl)c3)ncnc2cc1OC1CCNC1 (stereo not drawn)
IC50: 0.01 to 0.02 µM

Hi there! I need IC50 for each item below, if you can.
1. C=CC(=O)Nc1cc2c(Nc3ccc(OCc4ccccn4)c(Cl)c3)ncnc2cc1OCCN1CC2(COC2)C1
2. C=CC(=O)Nc1cc2c(Nc3ccc(OCc4ccccn4)c(Cl)c3)ncnc2cc1OCCN(C)C
3. C=CC(=O)Nc1cc2c(Nc3ccc(OCc4ccccn4)c(Cl)c3)ncnc2cc1N(C)C1CCN(C)C1 (stereo not drawn)
4. C=CC(=O)Nc1cc2c(Nc3ccc(Oc4ccccc4)cc3)ncnc2cc1OCCN1CCOCC1
5. C=CC(=O)Nc1cc2c(Nc3ccc(OCc4ccccn4)c(Cl)c3)ncnc2cc1C#CC(C)(C)N(C)C
6. C=CC(=O)Nc1cc2c(Nc3ccc(OCc4ccccn4)c(Cl)c3)ncnc2cc1OCCN1CC2CCC(C1)O2
7. C=CC(=O)Nc1cc2c(Nc3ccc(OCc4ccccn4)c(Cl)c3)ncnc2cc1N1CC(N2CCOCC2)C1

["0.005 to 0.01 µM", "0.005 to 0.01 µM", "0.1 to 0.2 µM", "0.03 to 0.05 µM", "0.05 to 0.1 µM", "0.01 to 0.02 µM", "0.05 to 0.1 µM"]

###

Give IC50 for every item shown.
TARGET OR SYSTEM: EGFR V3 (Homo sapiens, UniProt P00533, DELINS30-297G)
Construct: expressed in transfected cells; host or cells: BaF3 (murine pro-B), retroviral pMXs-IRES-Blasticidin
MEASUREMENT NOTES: Activity for inhibiting EGFR (Table A), EGFR V3 (EGFR-Viii)
Type: cell-based
EXPERIMENTAL CONDITIONS: read-out: EGFR V3, potency code (IC50)

The following molecules have reported results that may help.
MOLECULE: C=CC(=O)Nc1cc2c(Nc3ccc(OCc4cnccn4)c(Cl)c3)ncnc2cc1OCCN1CCN(C)CC1
TARGET OR SYSTEM: EGFR V3 (Homo sapiens, UniProt P00533, DELINS30-297G)
IC50: 30 to 50 nM
//
MOLECULE: C=CC(=O)Nc1cc2c(Nc3ccc(OCc4ccccn4)c(Cl)c3)ncnc2cc1OC1CCNC1 (stereo not shown)
TARGET OR SYSTEM: EGFR V3 (Homo sapiens, UniProt P00533, DELINS30-297G)
IC50: 200 to 300 nM
//
MOLECULE: C=CC(=O)Nc1cc2c(Nc3ccc(OCc4cccnn4)c(Cl)c3)ncnc2cc1OCCCN1CCOCC1
TARGET OR SYSTEM: EGFR V3 (Homo sapiens, UniProt P00533, DELINS30-297G)
IC50: 30 to 50 nM
//
MOLECULE: C=CC(=O)Nc1cc2c(Nc3cc(Cl)c(OCc4cccc(F)c4)cc3F)ncnc2cc1OCCCN1CC(OC)C1
TARGET OR SYSTEM: EGFR V3 (Homo sapiens, UniProt P00533, DELINS30-297G)
IC50: 200 to 300 nM

Can you give me IC50 for all of these, one by one?
1. C=CC(=O)Nc1cc2c(Nc3ccc(OCc4ccccn4)c(Cl)c3)ncnc2cc1C#CC12CCN(CC1)CC2
2. C=CC(=O)Nc1cc2c(Nc3ccc(OCc4ccccn4)c(Cl)c3)c(C#N)cnc2cc1OCCN1CCOCC1
3. C=CC(=O)Nc1cc2c(Nc3ccc(OCc4cccnn4)c(Cl)c3)ncnc2cc1OCCCN1CC(OC)C1
4. CC#CC(=O)Nc1cc2c(Nc3cc(Cl)c(OCc4cccc(F)c4)cc3F)ncnc2cc1OCCN1CCOCC1
5. CC#CC(=O)Nc1cc2c(Nc3ccc(OCc4ccccn4)c(Cl)c3)ncnc2cc1OC1CCN(C)C1 (stereo not shown)
6. C=CC(=O)Nc1cc2c(Nc3ccc(OCc4ccccn4)c(Cl)c3)ncnc2cc1OCCN1CCC2C1CCN2C (stereo not shown)
7. C=CC(=O)Nc1cc2c(Nc3ccc(OCc4ccccn4)c(Cl)c3)ncnc2cc1OCCCN1CCOCC1

1: 30 to 50 nM; 2: 50 to 100 nM; 3: 30 to 50 nM; 4: 50 to 100 nM; 5: 20 to 30 nM; 6: 30 to 50 nM; 7: 20 to 30 nM

Look up IC50 for the entries below, preserving their order.
1. C=CC(=O)Nc1cc2c(Nc3ccc(OCc4ccccn4)c(Cl)c3)ncnc2cc1OCCCN1CCN(C)CC1
2. C=CC(=O)Nc1cc2c(Nc3ccc(OCc4ccccn4)cc3)ncnc2cc1OCC1COCCN1 (stereo not shown)
3. CC#CC(=O)Nc1cc2c(Nc3cc(Cl)c(OCc4cccc(F)c4)cc3F)ncnc2cc1OCCCN1CCOCC1
4. CC#CC(=O)Nc1cc2c(Nc3cc(Cl)c(OCc4cccc(F)c4)cc3F)ncnc2cc1OCCCN1CC(OC)C1

1. 10 to 20 nM
2. 50 to 100 nM
3. 50 to 100 nM
4. 100 to 200 nM
